EXPERIMENTAL_PROTOCOL: Cytotoxicity against human PC3 cells assessed as decrease in cell viability after 48 hrs by SRB assay
Type: functional, cell-based
CONDITIONS: pc-3
REPORTED_METRIC: IC50 (µg)
Give bare numbers, in µg.

Known results for compounds:
SMILES_DATA: COc1cccc2c1C(=O)c1c(O)c3c(c(O)c1C2=O)C[C@@](O)(C(=O)CO)C[C@@H]3O[C@H]1C[C@H](N)[C@H](O)[C@H](C)O1
OBSERVED_MEASUREMENT: 0.008
--
SMILES_DATA: N=C1C(=S)N(c2cc(Cl)cc(Cl)c2)C(=O)N1c1cccc(Cl)c1
OBSERVED_MEASUREMENT: 0.031

Lab note: next compound to report on.
Challenge: Given the entry Cc1ccc(F)cc1N1C(=N)C(=S)N(c2cc(Cl)cc(Cl)c2)C1=O , report its measured IC50.
Response given: 0.064

###

EXPERIMENTAL_PROTOCOL: Cytotoxicity against human HepG2 cells assessed as decrease in cell viability after 48 hrs by SRB assay
Assay type: functional, cell-based
REPORTED_METRIC: IC50
State the value, then name its unit.

Please give IC50 for each item listed below.
1. N=C1C(=S)N(c2cc(Cl)cc(Cl)c2)C(=O)N1c1cccc(Cl)c1
2. N=C1C(=S)N(c2cc(Cl)cc(Cl)c2)C(=O)N1c1ccc(Cl)c(C(F)(F)F)c1

Response given:
1. 0.025 µg
2. 0.028 µg

Record IC50 for all entries; do not skip any.
1. N=C1C(=S)N(c2cc(Cl)cc(Cl)c2)C(=O)N1c1c(Cl)cccc1Cl
2. N=C1C(=S)N(c2cc(Cl)cc(Cl)c2)C(=O)N1c1cc(Cl)c(Cl)cc1Cl

Response given:
1: 0.039 µg; 2: 0.017 µg

###

Test system: Human alphaherpesvirus 1
EXPERIMENTAL_PROTOCOL: Antiviral activity against HSV1 infected in African green monkey Vero cells by plaque formation assay
Assay type: functional
Parameters: concentration or dose not given beside the values
I'd appreciate it if you could supply Activity values for the items below.
One number for each entry, in %.

Some compounds with recorded Activity:
SMILES_DATA: N=C1C(=S)N(c2cc(Cl)cc(Cl)c2)C(=O)N1c1cccc(Cl)c1
Activity (%): 36.4
//
SMILES_DATA: Cc1ccc(F)cc1N1C(=N)C(=S)N(c2ccc(Br)cc2)C1=O
Activity (%): 43.1
//
SMILES_DATA: COc1ccc(N2C(=N)C(=S)N(c3cc(OC)ccc3OC)C2=O)cc1
Activity (%): 42
//
SMILES_DATA: COc1ccc(OC)c(N2C(=O)N(c3ccc(C)cc3)C(=N)C2=S)c1
Activity (%): 50.2
//
SMILES_DATA: N=C1C(=S)N(c2cc(Cl)cc(Cl)c2)C(=O)N1c1cc(Cl)c(Cl)cc1Cl
Activity (%): 96.7

List the reported Activity of each compound below.
1. N=C1C(=S)N(c2ccccc2)C(=O)N1c1c(Cl)cccc1Cl
2. N=C1C(=S)N(c2cc(Cl)cc(Cl)c2)C(=O)N1c1ccc(Cl)c(C(F)(F)F)c1
3. COc1ccc(OC)c(N2C(=O)N(c3ccc(SC)cc3)C(=N)C2=S)c1

Response given:
33.3
9.6
85.7

###

I'd be grateful if you could share measured zone of inhibition at 5000 µg/disc for these entries.
Tested on: Bacillus subtilis
EXPERIMENTAL_PROTOCOL: Antibacterial activity against Bacillus subtilis NCTC 10400 at 5 mg after 24 hrs by agar well diffusion assay
Type: functional
CONDITIONS: NCTC 10400, 24 h, read-out: DIZ
Numbers only, in mm.

Take a look at these entries with their results.
SMILES_DATA: COc1ccc(OC)c(N2C(=O)N(c3ccc4c(c3)Cc3ccccc3-4)C(=N)C2=S)c1
UNIT_LABEL: mm
OBSERVED_MEASUREMENT: 12
--
SMILES_DATA: CSc1ccc(N2C(=N)C(=S)N(c3cc(Cl)cc(Cl)c3)C2=O)cc1
UNIT_LABEL: mm
OBSERVED_MEASUREMENT: 24

Challenge: What measured zone of inhibition at 5000 µg/disc goes with N=C1C(=S)N(c2cc(Cl)cc(Cl)c2)C(=O)N1c1cc(Cl)c(Cl)cc1Cl ?
Response given: 27
